Give growth for every item shown.
- Test system: U251 CNS
- Test Name: NCI-60 one-dose screen, 48 h (100 = growth as untreated, 0 = no growth, -100 = all killed)
- Experimental Parameters: 10 µM unless noted
- Procedure: Growth inhibition of the U251 human tumor cell line is measured as a screen for anti-cancer activity. Cells are grown in 96 well plates and exposed to the test compound for 48 hours. Compounds are tested at a single concentration, which is 10^-5 M for most compounds. The reported endpoint is percent growth (GI% or GIPRCNT), where numbers from 0 - 100% represent growth inhibition, and numbers from -100% - 0 represent cell death. For example, a value of 40 represents 60% growth inhibition. […]
About 83,000 compounds went through this panel and 20% of them were active in at least one assay; those are over-represented in the sample as a whole. Calls of active or inactive are those of the source. How the source made its calls: active means growth percent below 10; inactive means the rest.

Req: Given the compound `O=C(/C=C\c1cc(Br)ccc1O)/C=C/c1cc(Br)ccc1O` , write its reported growth.
Resp: -82.6% (active)

Req: Output measured growth for this item: `O=C1NC(=O)/C(=C/C=C/c2ccccc2)S1`
Resp: 17.1% (inactive)

Req: Check the records and state growth for `N[C@H](C(=O)O)[C@@H]1CC(Cl)=NO1`
Resp: 26.8% [20 µM] (inactive)

Req: Find the measured growth of `Oc1c(Br)c(Br)c(O)c(Br)c1Br` and report it.
Resp: 114% (inactive)

Req: Supply growth value. Item: `CCOC(=O)/C(=C\c1ccc(-c2ccccc2)cc1)C(C)=O`
Resp: 103% (inactive)

Req: Read off the recorded growth for CCCCCCCCCCCCCCCC[N+](C)(CCO)Cc1cnc[nH]1 (stereo unspecified)
Resp: -86.5% (active)

* * *

- System: HCT-116 colon
- Test Name: NCI-60 one-dose screen, 48 h
- Experimental Parameters: 10 µM unless noted
The panel holds about 83,000 compounds, 20% with a hit somewhere; the sample as a whole holds those more often. Activity calls are given as the source filed them. How the source made its calls: active means growth percent below 10; inactive means the rest.
Mark one answer only. Choices: active, inactive

Req: For `O=[N+]([O-])c1ccc2c(N=Nc3ccc4ccccc4c3O)c(O)cc(S(=O)(=O)O)c2c1` , which call appears in the assay record?
Resp: inactive

Req: Record request — test call for `S=C(N/N=C/c1ccccn1)Nc1ccccn1`
Resp: active

Req: Tell me the assay call for CCC(c1cccc(O)c1)C(CC)c1cccc(O)c1 (centres undefined) please.
Resp: inactive

Req: Which outcome was entered for the compound `COc1cc(NS(C)(=O)=O)ccc1Nc1c2ccccc2nc2ccccc12` in this test?
Resp: inactive

Req: What did this assay record as the result for `O=C(Nc1ccccc1)c1cc(Cl)ccc1O` ?
Resp: inactive

Req: Answer briefly: the call reported for `N#CSCc1ccc(CSC#N)c(Cl)c1` in this assay.
Resp: inactive

Req: Record request — test call for `CN=C(N)N/N=C(\C)c1ccc2c(c1)Cc1cc(/C(C)=N/NC(N)=NC)ccc1-2`
Resp: active

Req: Please state the recorded outcome for this compound: CCCCCCCCCCCCCCCC[N+](C)(CCO)Cc1cnc[nH]1 (centres undefined)
Resp: active

Req: # outcome recorded in this test, key = CCC(CCCN(CC)CCc1ccccc1)OC(=O)c1cc(OC)c(OC)c(OC)c1 (centres undefined)
Resp: inactive

Req: Hey, what did the test say about `O=C1c2ccccc2C(=O)N1c1ccccc1` ?
Resp: inactive

Req: Answer briefly: the call reported for `CNc1ccc2c(c1)c1ccccc1n2C` in this assay.
Resp: inactive

Req: Each compound tested received a call. Report the one for `C/C=C1\SC(=S)NC1=O` .
Resp: inactive

Req: Could you check what this test reported for `O=C1NC(=O)/C(=C/C=C/c2ccccc2)S1` ?
Resp: inactive

Req: What outcome does the record of this test show for `CCN(CC)CC(C)(C)C(=O)/C=C/c1ccc(Cl)c(Cl)c1` ?
Resp: active

Where do the numbers come from? From PubChem BioAssay (NCI).
